- Assay target: HIF-2α HIS TAG-PASB Domain (Homo sapiens, UniProt Q99814)
- Construct: 100 nM HIF-2α HIS TAG-PASB Domain
- Sequence (Q99814 240-350 limits assumed): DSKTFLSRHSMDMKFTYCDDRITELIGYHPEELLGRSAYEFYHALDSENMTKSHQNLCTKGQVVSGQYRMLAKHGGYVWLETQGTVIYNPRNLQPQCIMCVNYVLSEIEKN
- Test protocol: HIF-2α Scintillation Proximity Assay (SPA)
- Type: binding
- Test conditions: read-out: Scintillation Proximity Assay IC50
For each record, write down the corresponding IC50.

CS(=O)(=O)c1ccc(O[C@H]2CC[C@@H](C#N)CC2)c2c1[C@H](O)C(F)(F)[C@@H]2F [Compound 758] : > 1000 nM

Please state IC50 for every compound in the list that follows.
1. N#Cc1cc(F)cc(Oc2ccc3c(c2C(F)F)C(O)CS3(=O)=O)c1 (stereo not drawn) [Compound 374]
2. C[S+]([O-])c1ccc(Oc2cc(F)cc(C#N)c2)c2c1[C@H](O)C(F)(F)C2 (stereo partly drawn) [Compound 272]
3. O=S(=O)(c1ccc(OCC2CC2)c2c1C(O)CC2)C(F)(F)F (stereo not drawn) [Compound 597]
4. CC1(O)c2c(ccc(Oc3cc(F)cc(F)c3)c2Br)S(=O)(=O)C1(F)F (stereo not drawn) [Compound 444]
5. CN1CCC(Oc2ccc(S(=O)(=O)C(F)(F)F)c3c2CC(F)(F)C3O)C1 (stereo not drawn) [Compound 642]
6. N[C@H]1C[C@@H](Oc2ccc(S(=O)(=O)C(F)(F)F)c3c2CC(F)(F)[C@H]3O)C1 [Compound 724]
7. O=S(=O)(c1ccc(Oc2cc(F)c[n+]([O-])c2)c2c1[C@H](O)C(F)(F)C2)C(F)(F)F [Compound 310]
8. O=S(=O)(c1ccc(OC2CCC2)c2c1C(O)C(F)(F)C2)C(F)(F)F (stereo not drawn) [Compound 602]

Output:
1. 250 to 1000 nM
2. > 1000 nM
3. > 1000 nM
4. 50 to 249 nM
5. > 1000 nM
6. > 1000 nM
7. < 50 nM
8. < 50 nM

Please state IC50 for every compound in the list that follows.
1. O=S(=O)(c1ccc(OCCO)c2c1C(O)CC2)C(F)(F)F (stereo not drawn) [Compound 613]
2. O=S(=O)(c1ccc([C@@H]2CCC[C@H](O)C2)c2c1[C@H](O)C(F)(F)C2)C(F)(F)F [Compound 482]
3. O=S(=O)(c1ccc(Oc2ccc(F)cc2F)c(Br)c1)C(F)(F)F [Compound 175]
4. N#Cc1cc(F)cc(Oc2ccc(S(=O)(=O)CCO)c3c2CC(F)(F)C3O)c1 (stereo not drawn) [Compound 250]
5. O=S(=O)(c1ccc(Oc2ccc(F)cc2)c2c1C(O)CC2)C(F)(F)F (stereo not drawn) [Compound 212]
6. NS(=O)(=O)c1ccc(Oc2cncc(F)c2)c2c1[C@H](O)C(F)(F)[C@@H]2F [Compound 341]
7. CCOCC1(COc2ccc(S(=O)(=O)C(F)(F)F)c3c2CC(F)(F)[C@H]3O)COC1 [Compound 708]

Output:
> 1000 nM
250 to 1000 nM
> 1000 nM
> 1000 nM
250 to 1000 nM
< 50 nM
> 1000 nM

Please state IC50 for every compound in the list that follows.
1. NC1CS(=O)(=O)c2ccc(Oc3cc(F)cc(Cl)c3)c(C(F)F)c21 (stereo not drawn) [Compound 363]
2. COc1cncc(Oc2ccc3c(c2Br)[C@@H](O)C(F)(F)S3(=O)=O)c1 [Compound 429]
3. N#Cc1cc(F)cc(Oc2ccc(S(=O)(=O)C(F)F)cc2Br)c1 [Compound 132]
4. O=S(=O)(CF)c1ccc(Oc2cccc3sccc23)c2c1C(O)C(F)(F)C2 (stereo not drawn) [Compound 242]
5. O=S(=O)(c1ccc(-c2ccccc2Cl)c2c1[C@H](O)C(F)(F)C2)C(F)(F)F [Compound 565]
6. CCCOc1ccc(S(=O)(=O)C(F)(F)F)c2c1CCC2O (stereo not drawn) [Compound 583]
7. N#Cc1c(Oc2cccc(F)c2)ccc2c1[C@@H](O)CS2(=O)=O [Compound 422]

Output:
> 1000 nM
> 1000 nM
250 to 1000 nM
50 to 249 nM
> 1000 nM
> 1000 nM
250 to 1000 nM

Please state IC50 for every compound in the list that follows.
1. N#Cc1cc(F)cc(Oc2ccc3c(c2C(F)F)C(O)(C(F)(F)F)C(F)(F)S3(=O)=O)c1 (stereo not drawn) [Compound 445]
2. O=S1(=O)C[C@H](O)c2c1ccc(Oc1cc(F)cc(F)c1)c2Br [Compound 413]
3. CC1(C)CC[C@H](O)[C@@H](c2ccc(S(=O)(=O)C(F)(F)F)c3c2CC(F)(F)[C@H]3O)C1 [Compound 544]
4. N#Cc1cc(F)cc(Oc2ccc(C(F)(F)F)c3c2CC(F)(F)[C@H]3O)c1 [Compound 273]

Output:
1. > 1000 nM
2. > 1000 nM
3. > 1000 nM
4. < 50 nM
